# system tested: RET (human)
# protocol text: radiometric filter-binding kinase assay, Kinase HotSpot
# experimental parameters: compound 0.5 µM; ATP 10 µM
assay metric: residual activity (%)
A number alone suffices; assume %.

Ask: Give the value of residual activity reported for the following: O=C1Nc2ccccc2/C1=C1\Nc2ccccc2\C1=N/O
Reply: 8.05

Ask: Give the value of residual activity reported for the following: CC(=O)O/N=C1\C(=C2\C(=O)Nc3cc(Br)ccc32)Nc2ccccc21
Reply: 6.58

Ask: Give the value of residual activity reported for the following: O=C1NC(=O)/C(=C\c2ccc3nccnc3c2)S1
Reply: 97.7

Ask: Give the value of residual activity reported for the following: Cn1sc(=O)n(Cc2ccccc2)c1=O
Reply: 106

Ask: Give the value of residual activity reported for the following: CCn1cnc2c(Nc3cccc(Cl)c3)nc(N[C@@H]3CCCC[C@@H]3N)nc21
Reply: 69.3

Ask: Give the value of residual activity reported for the following: CN([C@@H](Cc1ccc(OS(=O)(=O)c2cccc3cnccc23)cc1)C(=O)N1CCN(c2ccccc2)CC1)S(=O)(=O)c1cccc2cnccc12
Reply: 105

Ask: Give the value of residual activity reported for the following: O=C(CCCc1ccc(-c2ccccc2F)cc1)Nc1ccc(O)cc1
Reply: 111

Ask: Give the value of residual activity reported for the following: Oc1ccc(Nc2nc(-c3ccc(Cl)cc3)cs2)cc1
Reply: 99

Ask: Give the value of residual activity reported for the following: Nc1nccc(-c2c(-c3ccc(F)cc3)ncn2C2CCNCC2)n1
Reply: 89.4

Ask: Give the value of residual activity reported for the following: O=C(O)/C=C/c1cc(Br)c(Br)c(Br)c1Br
Reply: 76.4

Ask: Give the value of residual activity reported for the following: COc1ccc(OC)c2c(=S)c3ccccc3[nH]c12
Reply: 82.8

Ask: Give the value of residual activity reported for the following: Nc1nnc2[nH]c3ccccc3nc1-2
Reply: 97.1

Ask: Give the value of residual activity reported for the following: O=C1NC(=O)C(c2cn(CCCO)c3ncccc23)=C1c1cnccn1
Reply: 54.5

Ask: Give the value of residual activity reported for the following: O=C1NC(=O)C(c2c[nH]c3ccccc23)=C1c1c[nH]c2ccccc12
Reply: 80.6

Ask: Give the value of residual activity reported for the following: CCN(CC)CCCCN1c2ccccc2Oc2ccc(Cl)cc21
Reply: 96.3

Ask: Give the value of residual activity reported for the following: O=C1Nc2ccccc2/C1=C1/Nc2ccccc2/C1=N\OCCC(O)CO (stereo unspecified)
Reply: 1.22
